# Assay Name: Clinical pharmacokinetic study of MB-102 given intravenously: plasma and urine collection
# Assay type: in vivo, human
# Assay Context: human, plasma, intravenous, stage 3 renal impairment; read-out: plasma half-life (converted)
Quantity Name: half-life

• Nc1nc(C(=O)N[C@H](CO)C(=O)O)c(N)nc1C(=O)N[C@H](CO)C(=O)O [MB-102] = 4 h

----------
# Assay Name: Clinical pharmacokinetic study of MB-102 given intravenously: plasma and urine collection
# Assay type: in vivo, human
# Assay Context: human, plasma, intravenous, stage 2 and 3 groups (so in the source); read-out: average plasma half-life (converted)
Quantity Name: half-life (h)

• Nc1nc(C(=O)N[C@H](CO)C(=O)O)c(N)nc1C(=O)N[C@H](CO)C(=O)O = 2.5
